Recorded Tts by entry
# testSummary: Tts (total solar transmittance) of heat ray shielding film
# Type: physicochemical
# condition: heat ray shielding film (5 g compound, 50 g acryl resin LP-45M, 2.5 μm on PET) on 3 mm glass plate; JIS R3106
Respond with the bare value in %.

Examples from the recorded data:
molecule	outputUnit	reportedValue
COCCCCc1ccc(CCCCOC)c2c1-c1nc-2nc2[n-]c(nc3nc(nc4[n-]c(n1)c1c(CCCCOC)ccc(CCCCOC)c41)-c1c(CCCCOC)ccc(CCCCOC)c1-3)c1c(CCCCOC)ccc(CCCCOC)c21.[O]=[V+2] [Specific Example (1)-30]	%	86.1
COc1cccc(OC)c1OCCCCc1ccc(CCCCOc2c(OC)cccc2OC)c2c1-c1nc-2nc2[n-]c(nc3nc(nc4[n-]c(n1)c1c(CCCCOc5c(OC)cccc5OC)ccc(CCCCOc5c(OC)cccc5OC)c41)-c1c(CCCCOc4c(OC)cccc4OC)ccc(CCCCOc4c(OC)cccc4OC)c1-3)c1c(CCCCOc3c(OC)cccc3OC)ccc(CCCCOc3c(OC)cccc3OC)c21.[O]=[V+2] [Specific Example (1)-44]	%	85.6

query: # return recorded Tts for entry COc1cccc(OCCCCc2ccc(CCCCOc3cccc(OC)c3)c3c2-c2nc-3nc3[n-]c(nc4nc(nc5[n-]c(n2)c2c(CCCCOc6cccc(OC)c6)ccc(CCCCOc6cccc(OC)c6)c52)-c2c(CCCCOc5cccc(OC)c5)ccc(CCCCOc5cccc(OC)c5)c2-4)c2c(CCCCOc4cccc(OC)c4)ccc(CCCCOc4cccc(OC)c4)c32)c1.[O]=[V+2] [Specific Example (1)-39]
result: 85.9

query: Item Fc1ccccc1OCCCCc1ccc(CCCCOc2ccccc2F)c2c1-c1nc-2nc2[n-]c(nc3nc(nc4[n-]c(n1)c1c(CCCCOc5ccccc5F)ccc(CCCCOc5ccccc5F)c41)-c1c(CCCCOc4ccccc4F)ccc(CCCCOc4ccccc4F)c1-3)c1c(CCCCOc3ccccc3F)ccc(CCCCOc3ccccc3F)c21.[O]=[V+2] [Specific Example (1)-43] : provide Tts
result: 85.7

query: Please list Tts recorded for the molecule [O]=[V+2].c1ccc(OCCOCCCCc2ccc(CCCCOCCOc3ccccc3)c3c2-c2nc-3nc3[n-]c(nc4nc(nc5[n-]c(n2)c2c(CCCCOCCOc6ccccc6)ccc(CCCCOCCOc6ccccc6)c52)-c2c(CCCCOCCOc5ccccc5)ccc(CCCCOCCOc5ccccc5)c2-4)c2c(CCCCOCCOc4ccccc4)ccc(CCCCOCCOc4ccccc4)c32)cc1 [Specific Example (1)-38]
result: 85.8

query: Entry COc1cccc(OC)c1OCCCCc1ccc(CCCCOc2c(OC)cccc2OC)c2c1-c1nc-2nc2[n-]c(nc3nc(nc4[n-]c(n1)c1c(CCCCOc5c(OC)cccc5OC)ccc(CCCCOc5c(OC)cccc5OC)c41)-c1c(CCCCOc4c(OC)cccc4OC)ccc(CCCCOc4c(OC)cccc4OC)c1-3)c1c(CCCCOc3c(OC)cccc3OC)ccc(CCCCOc3c(OC)cccc3OC)c21.[Cu+2] [Specific Example (1)-45] needs its Tts filled in; supply it.
result: 85.5

----------
// values below are reported Transmittance (%) 460 nm
# testSummary: Visible light transmittance of chloroform solution
# Assay type: physicochemical
# condition: spectrum converted to transmittance 10% at near-infrared maximum absorption wavelength
# Experimental: The visible light transmittance of the phthalocyanine-based compound of the present invention and the comparative example compounds was measured by the following measurement method. […] The absorption spectrum measured as above was converted such that the absorbance became 1.0, that is, the transmittance became 10% at the maximum absorption wavelength in a near-infrared range, thereby obtaining a transmission spectrum. […]
Lab book: enter the figure in %, no units written.

Please review the following examples before continuing.
compound	outputUnit	Transmittance (%) 460 nm
COCc1ccc(COC)c2c1-c1nc-2nc2[n-]c(nc3nc(nc4[n-]c(n1)c1c(COC)ccc(COC)c41)-c1c(COC)ccc(COC)c1-3)c1c(COC)ccc(COC)c21.[O]=[V+2] [Comparative Example Compound (a), reference compound]	%	97.9
COc1cccc(OCCCCc2ccc(CCCCOc3cccc(OC)c3)c3c2-c2nc-3nc3[n-]c(nc4nc(nc5[n-]c(n2)c2c(CCCCOc6cccc(OC)c6)ccc(CCCCOc6cccc(OC)c6)c52)-c2c(CCCCOc5cccc(OC)c5)ccc(CCCCOc5cccc(OC)c5)c2-4)c2c(CCCCOc4cccc(OC)c4)ccc(CCCCOc4cccc(OC)c4)c32)c1.[Cu+2] [Specific Example (1)-40]	%	99.4
COc1cccc(OCCCCc2ccc(CCCCOc3cccc(OC)c3)c3c2-c2nc-3nc3[n-]c(nc4nc(nc5[n-]c(n2)c2c(CCCCOc6cccc(OC)c6)ccc(CCCCOc6cccc(OC)c6)c52)-c2c(CCCCOc5cccc(OC)c5)ccc(CCCCOc5cccc(OC)c5)c2-4)c2c(CCCCOc4cccc(OC)c4)ccc(CCCCOc4cccc(OC)c4)c32)c1.[O]=[V+2] [Specific Example (1)-39]	%	97.7
Fc1ccccc1OCCCCc1ccc(CCCCOc2ccccc2F)c2c1-c1nc-2nc2[n-]c(nc3nc(nc4[n-]c(n1)c1c(CCCCOc5ccccc5F)ccc(CCCCOc5ccccc5F)c41)-c1c(CCCCOc4ccccc4F)ccc(CCCCOc4ccccc4F)c1-3)c1c(CCCCOc3ccccc3F)ccc(CCCCOc3ccccc3F)c21.[O]=[V+2] [Specific Example (1)-43]	%	97.6
COCCCCCCCCc1ccc(CCCCCCCCOC)c2c1-c1nc-2nc2[n-]c(nc3nc(nc4[n-]c(n1)c1c(CCCCCCCCOC)ccc(CCCCCCCCOC)c41)-c1c(CCCCCCCCOC)ccc(CCCCCCCCOC)c1-3)c1c(CCCCCCCCOC)ccc(CCCCCCCCOC)c21.[O]=[V+2] [Comparative Example Compound (b), reference compound]	%	97.8

As a next step, examine the compound that follows.
query: Respond only with Transmittance (%) 460 nm recorded for CC(C)(C)c1ccc(OCCCCc2ccc(CCCCOc3ccc(C(C)(C)C)cc3)c3c2-c2nc-3nc3[n-]c(nc4nc(nc5[n-]c(n2)c2c(CCCCOc6ccc(C(C)(C)C)cc6)ccc(CCCCOc6ccc(C(C)(C)C)cc6)c52)-c2c(CCCCOc5ccc(C(C)(C)C)cc5)ccc(CCCCOc5ccc(C(C)(C)C)cc5)c2-4)c2c(CCCCOc4ccc(C(C)(C)C)cc4)ccc(CCCCOc4ccc(C(C)(C)C)cc4)c32)cc1.[O]=[V+2] [Specific Example (1)-42]
result: 97.9

The values you see were collected from patent US11015061B2.
